Test method notes: amyloid nucleation score (Sup35N fusion, yeast selection) (log enrichment); library NNK2; higher = more nucleation; inactive = no reads after selection;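 also: zero at mode of non-aggregating sequences after 7 days selection at 30°C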
Readout type: amyloid nucleation score
Answer with a number only.

Documented amyloid nucleation score of DSSIDRWF : 1.15

Documented amyloid nucleation score of DVRSRVHWDMSDQQFIMWWV : -0.716

Documented amyloid nucleation score of TCSFMMCLPTRLARIIDPWM : -0.322

---

Test method notes: amyloid nucleation score (Sup35N fusion, yeast selection) (log enrichment); library NNK3; higher = more nucleation; inactive = no reads after selection
Readout type: amyloid nucleation score

Reference set (5 entries):
| Substance | Data value |
| --- | --- |
| LLKPTVRCKPRLK | inactive |
| RFSCCYRPLLYNQKVEWWRG | inactive |
| VVRVHIRCTAFYKAPSYWGS | 0.987 |
| VVSIYVGSYMSIICKS | 1.95 |
| QPPAKSMWFSFDMLS | inactive |

Documented amyloid nucleation score of MYVWLRCKLIGNSFLRVKCS : inactive

Documented amyloid nucleation score of DYTSYILLS : inactive

Documented amyloid nucleation score of SRNVGFGINSQQGLFFRVVV : inactive

Documented amyloid nucleation score of YQIMDPNRLAFVTDMLSRDL : inactive

Documented amyloid nucleation score of ISLGCLYLFCYVTGCICSVG : 1.49

Documented amyloid nucleation score of YFGCSYTNQAFGRSDSSYVD : inactive

Documented amyloid nucleation score of PDRLFLDTGSTWFKYMMSCL : -1.12

Documented amyloid nucleation score of GPFVSFYFVFTRFNQTSLGF : 1.57

Documented amyloid nucleation score of STRFMVIFDGISSVIGAIYG : inactive

Documented amyloid nucleation score of TYIVAEANVRSVGDEQSMMN : inactive

Documented amyloid nucleation score of VRYFSKSGGRNPNVGRVVPV : inactive

Documented amyloid nucleation score of ASDTVTCFAYAVKGLRRASG : inactive
